assay-target: human ACE2 (human, UniProt Q9BYF1)
Sequence (Q9BYF1 18-740): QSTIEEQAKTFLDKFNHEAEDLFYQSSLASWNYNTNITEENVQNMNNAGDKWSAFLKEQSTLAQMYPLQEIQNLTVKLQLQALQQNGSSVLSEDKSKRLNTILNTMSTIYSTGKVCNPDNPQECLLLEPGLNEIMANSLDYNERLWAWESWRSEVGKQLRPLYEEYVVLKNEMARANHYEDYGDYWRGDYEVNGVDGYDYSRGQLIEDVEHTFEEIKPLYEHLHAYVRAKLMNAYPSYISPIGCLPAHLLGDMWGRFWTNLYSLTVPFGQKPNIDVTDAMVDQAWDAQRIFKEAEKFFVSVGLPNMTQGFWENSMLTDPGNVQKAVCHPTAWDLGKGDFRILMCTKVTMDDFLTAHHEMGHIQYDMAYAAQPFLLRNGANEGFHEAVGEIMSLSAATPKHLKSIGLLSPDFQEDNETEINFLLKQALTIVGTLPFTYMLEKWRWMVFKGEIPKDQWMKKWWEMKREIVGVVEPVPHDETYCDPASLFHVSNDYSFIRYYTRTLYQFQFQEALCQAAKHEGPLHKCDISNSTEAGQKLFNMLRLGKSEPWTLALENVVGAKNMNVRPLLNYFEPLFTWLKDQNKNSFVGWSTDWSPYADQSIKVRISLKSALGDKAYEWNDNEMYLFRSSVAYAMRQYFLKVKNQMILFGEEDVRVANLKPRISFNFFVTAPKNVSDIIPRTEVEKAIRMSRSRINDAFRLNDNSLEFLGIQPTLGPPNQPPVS
assay-notes: SPR
readout-type: Kd (nM)
Answer in nM, number only, no unit symbol.

Sample FPIPLPYCWLCRALIKRIQAMIPKGGRMLPQLVCRLVLRCS [Super Mini-B (SMB)] — what was its Kd?
9.87
